Tested on: HCV replicon 2B
Assay: microbe, parasite or virus in culture
Format: cell-based, Hepatitis C virus (HCV)
Settings: read-out: 2B IC50; HCV replicon 2B; Replicon Assay A
I'd appreciate it if you marked entries y when IC50 is lower than 0.09 nM and n when it is not.

compound: COC(=O)N[C@H](C(=O)N1CCC[C@H]1c1ncc(-c2ccc3c(c2)OC(c2cc4ccccc4s2)n2c-3cc3cc(-c4cnc([C@@H]5C[C@@H](F)CN5C(=O)[C@@H](NC(=O)OC)C5CCOCC5)[nH]4)ccc32)[nH]1)C(C)C (single isomer, unassigned) [Compound 627]
group: n
//
compound: COCc1ccc(C2Oc3cc(-c4cnc([C@@H]5CCCN5C(=O)[C@@H](NC(=O)OC)C(C)C)[nH]4)cc(F)c3-c3cc4cc(-c5c[nH]c([C@@H]6CCCN6C(=O)[C@@H](NC(=O)OC)C(C)C)n5)ccc4n32)s1 (single isomer, unassigned) [Compound 512]
group: n
//
compound: COC(=O)NC(C(=O)N1[C@@H]2C[C@@H]2C[C@H]1c1ncc(-c2ccc3c(c2)cc2n3C(c3cc4ccccc4s3)Oc3cc(-c4cnc([C@@H]5CCCN5C(=O)[C@@H](NC(=O)OC)C(C)C)[nH]4)cc(F)c3-2)[nH]1)C1C[C@@H](C)O[C@@H](C)C1 (single isomer, unassigned) [Compound 648]
group: n
//
compound: C=C(C)C1Oc2cc(-c3cnc([C@@H]4CCCN4C(=O)[C@@H](N)C(C)C)[nH]3)cc(F)c2-c2cc3cc(-c4cnc([C@@H]5C[C@H]6C[C@H]6N5C(C)=O)[nH]4)ccc3n21 (single isomer, unassigned) [Compound 571]
group: y
//
compound: CCc1ccc(C2Oc3cc(-c4cnc([C@@H]5CCCN5C(=O)[C@@H](NC(=O)OC)C(C)C)[nH]4)cc(C)c3-c3cc4cc(-c5cnc([C@@H]6CCCN6C(=O)C(NC(=O)OC)C6C[C@@H](C)O[C@@H](C)C6)[nH]5)ccc4n32)s1 (single isomer, unassigned) [Compound 543]
group: y
//
compound: CCc1ccc(C2Oc3cc(-c4cnc([C@@H]5CCCN5C(=O)[C@@H](NC(=O)OC)C(C)C)[nH]4)cc(C)c3-c3cc4cc(-c5cnc([C@@H]6CCCN6C(=O)C(NC(=O)OC)C6C[C@@H](C)O[C@H](C)C6)[nH]5)ccc4n32)s1 (single isomer, unassigned) [Compound 546]
group: y

###

Test system: HCV replicon 1AY93H
Assay: microbe, parasite or virus in culture
Assay type: cell-based, Hepatitis C virus (HCV)
Conditions: read-out: 1A Y93H IC50; replicon 1AY93H; Replicon Assay A
pIC50: −log10 of the molar value.
quantity-kind: pIC50

compound: COCC(C)(C)c1ccc(C2Oc3cc(-c4cnc([C@@H]5CCCN5C(=O)[C@@H](NC(=O)OC)C(C)C)[nH]4)cc(F)c3-c3cc4cc(-c5cnc([C@@H]6CCCN6C(=O)[C@@H](NC(=O)OC)C(C)C)[nH]5)ccc4n32)s1 (single isomer, unassigned) [Compound 400]
experimental-result: 9.82
//
compound: CCc1ccc(C2Oc3cc(-c4cnc([C@@H]5CCCN5C(=O)[C@@H](NC(=O)OC)C(C)C)[nH]4)cc(F)c3-c3cc4cc(-c5cnc([C@@H]6C[C@H]7C[C@H]7N6C(=O)C(NC(=O)OC)C6CCOC(C)(C)C6)[nH]5)ccc4n32)s1 (single isomer, unassigned) [Compound 196]
experimental-result: 10.21
//
compound: COC(=O)N[C@H](C(=O)N1CCC[C@H]1c1ncc(-c2cc(F)c3c(c2)OC(c2ccc(C#N)s2)n2c-3cc3cc(-c4cnc([C@@H]5CCCN5C(=O)[C@@H](NC(=O)OC)C(C)C)[nH]4)ccc32)[nH]1)C(C)C (single isomer, unassigned) [Compound 17]
experimental-result: 9.72
//
compound: COC(=O)NC(C(=O)N1CCC[C@H]1c1ncc(-c2ccc3c(c2)cc2n3C(c3ccc(C4CC4)s3)Oc3cc(-c4cnc([C@@H]5CCCN5C(=O)[C@@H](NC(=O)OC)C(C)C)[nH]4)cc(F)c3-2)[nH]1)C1CCCCO1 (single isomer, unassigned) [Compound 342]
experimental-result: 10.16

###

System: HCV replicon 1A
Experiment: microbe, parasite or virus in culture
Type: cell-based, Hepatitis C virus (HCV)
Conditions: HCV replicon 1A; Replicon Assay A

molecule: COC(=O)N[C@H](C(=O)N1CCC[C@H]1c1ncc(-c2ccc3c(c2)OC(c2cc4ccccc4s2)n2c-3cc3cc(-c4cnc([C@@H]5C[C@H]6C[C@H]6N5C(=O)[C@@H](NC(=O)OC)C(C)C)[nH]4)ccc32)[nH]1)C(C)C (single isomer, unassigned) [Compound 610]
assay-system: HCV replicon 1A
IC50 / pM: 12.4
--
molecule: COC(=O)N[C@H](C(=O)N1CCC[C@H]1c1ncc(-c2ccc3c(c2)OC(c2cc4ccccc4s2)n2c-3cc3cc(-c4cnc([C@@H]5C[C@@H](F)CN5C(=O)[C@@H](NC(=O)OC)C5CCOCC5)[nH]4)ccc32)[nH]1)C(C)C (single isomer, unassigned) [Compound 628]
assay-system: HCV replicon 1A
IC50 / pM: 3.14
--
molecule: CCc1c2n(c3ccc(-c4cnc(C5CCCN5C(=O)C(NC(=O)OC)C(C)C)[nH]4)cc13)C(c1ccc(C3CC3)s1)Oc1cc(-c3cnc(C4CCCN4C(=O)C(NC(=O)OC)C(C)C)[nH]3)cc(F)c1-2 (single isomer, unassigned) [Compound 838]
assay-system: HCV replicon 1A
IC50 / pM: 5.5
--
molecule: COC(=O)N[C@H](C(=O)N1CCC[C@H]1c1ncc(-c2cc(F)c3c(c2)OC(c2ccc(C4CC4)s2)n2c-3c(C)c3cc(-c4cnc([C@@H]5CCCN5C(=O)[C@@H](NC(=O)OC)C(C)C)[nH]4)ccc32)[nH]1)C(C)C (single isomer, unassigned) [Compound 841]
assay-system: HCV replicon 1A
IC50 / pM: 2.6

###

Tested on: HCV replicon 2B
Experiment: microbe, parasite or virus in culture
Assay type: cell-based, Hepatitis C virus (HCV)
Settings: read-out: 2B IC50; HCV replicon 2B; Replicon Assay A
Description: To measure cell-based anti-HCV activity of compounds of the present invention, two complimentary assays were employed using various replicons. […] The replicon RNA level was measured using real time PCR (TaqMan® EZ RT-PCR, Applied Biosystems 403028) with the following primers and probes: […] The amount of HCV replicon RNA per cell is quantified using a linear regression curve for a known nanogram (ng) amount of HCV replicon total RNA. […]
pIC50: −log10 of the molar value.
Use TRUE when the recorded pIC50 is no lower than 10; use FALSE when it is lower.

compound: COC(=O)NC(C(=O)N1CCC[C@H]1c1ncc(-c2ccc3c(c2)cc2n3C(c3cc4c(s3)CCC4)Oc3cc(-c4cnc([C@@H]5CCCN5C(=O)[C@@H](NC(=O)OC)C(C)C)[nH]4)cc(C)c3-2)[nH]1)C1CCOC(C)(C)C1 (single isomer, unassigned) [Compound 853]
group: TRUE

compound: COC(=O)NC(C(=O)N1CCC[C@H]1c1ncc(-c2ccc3c(c2)cc2n3C(c3cc4ccccc4s3)Oc3cc(-c4cnc([C@@H]5CCCN5C(=O)[C@@H](NC(=O)OC)C(C)C)[nH]4)cc(F)c3-2)[nH]1)C1C[C@@H](C)O[C@@H](C)C1 (single isomer, unassigned) [Compound 641]
group: TRUE

compound: COC(=O)N[C@H](C(=O)N1CCC[C@H]1c1ncc(-c2ccc3c(c2)OC(c2cc4sccc4s2)n2c-3cc3cc(-c4c[nH]c([C@@H]5C[C@H]6C[C@H]6N5C(=O)[C@@H](NC(=O)OC)C(C)C)n4)ccc32)[nH]1)C(C)C (single isomer, unassigned) [Compound 717]
group: FALSE

compound: COC(=O)N[C@H](C(=O)N1CCC[C@H]1c1ncc(-c2cc(F)c3c(c2)OC(c2cc4c(s2)CCC4)n2c-3cc3cc(-c4cnc([C@@H]5C[C@H]6C[C@H]6N5C(=O)[C@@H](NC(=O)OC)C5C[C@@H](C)O[C@@H](C)C5)[nH]4)ccc32)[nH]1)C(C)C (single isomer, unassigned) [Compound 553]
group: FALSE

compound: COC(=O)N[C@H](C(=O)N1CCC[C@H]1c1ncc(-c2cc(C)c3c(c2)OC(c2ccc(C4CC4)s2)n2c-3cc3cc(-c4cnc([C@@H]5C[C@H]6C[C@H]6N5C(=O)[C@@H](NC(=O)OC)C5CCOCC5)[nH]4)ccc32)[nH]1)C(C)C (single isomer, unassigned) [Compound 762]
group: TRUE

compound: COC(=O)N[C@H](C(=O)N1C[C@H](F)C[C@H]1c1nc(-c2ccc3c(c2)OC(c2ccc(C)s2)n2c-3cc3cc(-c4c[nH]c([C@@H]5C[C@H]6C[C@H]6N5C(=O)[C@@H](NC(=O)OC)C5CCOCC5)n4)ccc32)c[nH]1)C1CCOCC1 (single isomer, unassigned) [Compound 731]
group: TRUE

compound: COC(=O)N[C@H](C(=O)N1CCC[C@H]1c1ncc(-c2ccc3c(c2)OC(c2cc4ccccc4s2)n2c-3cc3cc(-c4cnc([C@@H]5C[C@H]6C[C@H]6N5C(=O)[C@@H](NC(=O)OC)C(C)C)[nH]4)ccc32)[nH]1)C(C)C (single isomer, unassigned) [Compound 609]
group: FALSE
